The reported numbers originate from the supplement of paper PMC3334620.

- ASSAY_TARGET: Yer064c (UniProt P40041)
- Sequence: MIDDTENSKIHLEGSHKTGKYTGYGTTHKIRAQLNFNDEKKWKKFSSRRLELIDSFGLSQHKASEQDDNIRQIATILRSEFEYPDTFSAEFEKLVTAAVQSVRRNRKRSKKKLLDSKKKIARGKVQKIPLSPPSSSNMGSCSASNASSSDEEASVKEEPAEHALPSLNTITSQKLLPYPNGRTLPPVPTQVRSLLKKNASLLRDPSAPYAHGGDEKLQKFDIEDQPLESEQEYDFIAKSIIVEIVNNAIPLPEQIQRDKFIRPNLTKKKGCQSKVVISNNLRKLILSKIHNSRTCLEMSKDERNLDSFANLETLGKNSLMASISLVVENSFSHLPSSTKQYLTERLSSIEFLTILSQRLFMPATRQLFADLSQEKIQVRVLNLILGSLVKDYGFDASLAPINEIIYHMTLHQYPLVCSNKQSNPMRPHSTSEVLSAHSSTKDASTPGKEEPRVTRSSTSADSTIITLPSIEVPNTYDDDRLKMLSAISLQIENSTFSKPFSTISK
- ASSAY_COMMENT: PBM E-score (8-mer binding enrichment) (E-score (-0.5 to 0.5)); higher = stronger / more preferred TF binding
- EXPERIMENTAL_CONTEXT: protein concentration: 200 nM; construct: GST-full length
Whole data set: some 33,000 sequences, median “E-score (-0.5 to 0.5)” near -0.036, cut for the highest 2% near 0.37. The list comes from a sample in which the highest values are over-represented; it also holds close analogues and randomly drawn sequences.
So basically, the class depends on measured PBM E-score, and the ranges are class 1: < -0.04; class 2: ≥ -0.04 and < 0.2; class 3: ≥ 0.2

    biopolymer_sequence  qualitative_label
 0             AGAGTCGC            class 3
 1             ATAGGACG            class 1
 2             GCGAGTCA            class 3
 3             GAAGATCC            class 1
 4             CGAGTCGC            class 3
 5             GCCCCGGA            class 1
 6             TCGAGTAA            class 2
 7             AGCATTAA            class 2
 8             CCGAGTCG            class 3
 9             ACAGAAGG            class 2
10             CTAATTAG            class 2
11             AGCTACGG            class 1
12             ATCTCTAG            class 2
13             CCGAGTCA            class 3
14             AATGGGGA            class 1
15             GTTATCAA            class 2
16             ACGAGTCG            class 3
17             CGAGTCGA            class 3
18             ACCCTGAC            class 2
19             GGGAGACC            class 1
20             CGGGCACA            class 1

====

- ASSAY_TARGET: Yer064c (UniProt P40041)
- Sequence: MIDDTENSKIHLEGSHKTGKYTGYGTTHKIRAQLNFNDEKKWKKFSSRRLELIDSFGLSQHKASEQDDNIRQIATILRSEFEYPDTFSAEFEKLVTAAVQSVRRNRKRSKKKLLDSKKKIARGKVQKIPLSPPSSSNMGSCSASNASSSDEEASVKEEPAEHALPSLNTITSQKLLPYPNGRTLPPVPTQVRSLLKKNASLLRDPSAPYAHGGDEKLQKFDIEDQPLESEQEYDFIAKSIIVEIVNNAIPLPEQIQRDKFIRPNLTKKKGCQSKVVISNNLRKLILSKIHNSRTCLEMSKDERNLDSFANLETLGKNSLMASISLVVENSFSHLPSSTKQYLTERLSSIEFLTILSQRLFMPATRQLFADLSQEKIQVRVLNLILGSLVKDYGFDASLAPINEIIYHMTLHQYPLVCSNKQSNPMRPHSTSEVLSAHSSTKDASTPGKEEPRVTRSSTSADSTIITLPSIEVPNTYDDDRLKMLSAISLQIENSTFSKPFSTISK
- ASSAY_COMMENT: PBM E-score (8-mer binding enrichment) (E-score (-0.5 to 0.5)); higher = stronger / more preferred TF binding
- EXPERIMENTAL_CONTEXT: protein concentration: 200 nM; construct: GST-full length
Whole data set: some 33,000 sequences, median “E-score (-0.5 to 0.5)” near -0.036, cut for the highest 2% near 0.37. For the sample, the highest values were picked, then their nearest neighbours and some sequences at random.
I would appreciate it if you labelled entries yes (1) when PBM E-score is 0.2 or higher, otherwise no (0).

>>> print(df.to_string())
   biopolymer_sequence  qualitative_label
0             AGTCATAA            yes (1)
1             AGTCATAT            yes (1)
2             TGTCATAA             no (0)
3             AGTCATAG            yes (1)
4             GAACTAGA             no (0)
5             AGACATAT             no (0)
6             CGTCATAC             no (0)
7             AGTCATAC            yes (1)
8             ATACCATG             no (0)
9             GGTCATAC             no (0)
